Catalogue of compounds with associated Kd
Experimental System: Protein cereblon/Tyrosine-protein kinase ABL1/Breakpoint cluster region protein (Homo sapiens, UniProt P00519+P11274+Q96SW2)
Sequence (P00519 whole entry, the tested form may be a part): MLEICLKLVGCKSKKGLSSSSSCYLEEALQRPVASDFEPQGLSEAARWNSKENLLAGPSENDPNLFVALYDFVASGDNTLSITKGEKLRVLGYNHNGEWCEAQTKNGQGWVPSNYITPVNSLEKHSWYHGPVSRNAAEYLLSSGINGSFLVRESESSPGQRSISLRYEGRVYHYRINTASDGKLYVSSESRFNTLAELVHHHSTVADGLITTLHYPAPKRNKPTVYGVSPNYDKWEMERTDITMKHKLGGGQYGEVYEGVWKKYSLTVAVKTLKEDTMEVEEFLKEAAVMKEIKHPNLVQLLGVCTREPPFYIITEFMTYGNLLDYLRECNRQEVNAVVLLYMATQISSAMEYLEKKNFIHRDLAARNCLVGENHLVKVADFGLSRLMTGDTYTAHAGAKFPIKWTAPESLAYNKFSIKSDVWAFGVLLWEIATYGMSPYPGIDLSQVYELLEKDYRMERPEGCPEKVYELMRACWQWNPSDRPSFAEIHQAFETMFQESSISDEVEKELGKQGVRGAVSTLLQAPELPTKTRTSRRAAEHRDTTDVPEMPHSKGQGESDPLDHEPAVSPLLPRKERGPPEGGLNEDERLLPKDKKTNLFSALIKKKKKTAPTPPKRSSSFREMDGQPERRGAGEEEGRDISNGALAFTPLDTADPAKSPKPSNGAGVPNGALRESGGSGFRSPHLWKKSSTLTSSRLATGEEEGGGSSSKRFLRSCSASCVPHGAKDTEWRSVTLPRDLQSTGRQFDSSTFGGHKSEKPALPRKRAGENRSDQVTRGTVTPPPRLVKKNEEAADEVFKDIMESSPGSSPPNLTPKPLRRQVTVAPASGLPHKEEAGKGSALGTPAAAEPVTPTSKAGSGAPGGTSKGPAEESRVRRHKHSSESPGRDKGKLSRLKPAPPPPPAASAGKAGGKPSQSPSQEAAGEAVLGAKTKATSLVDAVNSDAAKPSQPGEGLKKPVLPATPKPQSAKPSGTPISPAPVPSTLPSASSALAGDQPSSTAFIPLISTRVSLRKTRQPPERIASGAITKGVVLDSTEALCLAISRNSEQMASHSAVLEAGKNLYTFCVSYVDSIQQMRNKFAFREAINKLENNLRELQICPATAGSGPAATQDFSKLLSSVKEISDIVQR
Sequence (P11274 whole entry, the tested form may be a part): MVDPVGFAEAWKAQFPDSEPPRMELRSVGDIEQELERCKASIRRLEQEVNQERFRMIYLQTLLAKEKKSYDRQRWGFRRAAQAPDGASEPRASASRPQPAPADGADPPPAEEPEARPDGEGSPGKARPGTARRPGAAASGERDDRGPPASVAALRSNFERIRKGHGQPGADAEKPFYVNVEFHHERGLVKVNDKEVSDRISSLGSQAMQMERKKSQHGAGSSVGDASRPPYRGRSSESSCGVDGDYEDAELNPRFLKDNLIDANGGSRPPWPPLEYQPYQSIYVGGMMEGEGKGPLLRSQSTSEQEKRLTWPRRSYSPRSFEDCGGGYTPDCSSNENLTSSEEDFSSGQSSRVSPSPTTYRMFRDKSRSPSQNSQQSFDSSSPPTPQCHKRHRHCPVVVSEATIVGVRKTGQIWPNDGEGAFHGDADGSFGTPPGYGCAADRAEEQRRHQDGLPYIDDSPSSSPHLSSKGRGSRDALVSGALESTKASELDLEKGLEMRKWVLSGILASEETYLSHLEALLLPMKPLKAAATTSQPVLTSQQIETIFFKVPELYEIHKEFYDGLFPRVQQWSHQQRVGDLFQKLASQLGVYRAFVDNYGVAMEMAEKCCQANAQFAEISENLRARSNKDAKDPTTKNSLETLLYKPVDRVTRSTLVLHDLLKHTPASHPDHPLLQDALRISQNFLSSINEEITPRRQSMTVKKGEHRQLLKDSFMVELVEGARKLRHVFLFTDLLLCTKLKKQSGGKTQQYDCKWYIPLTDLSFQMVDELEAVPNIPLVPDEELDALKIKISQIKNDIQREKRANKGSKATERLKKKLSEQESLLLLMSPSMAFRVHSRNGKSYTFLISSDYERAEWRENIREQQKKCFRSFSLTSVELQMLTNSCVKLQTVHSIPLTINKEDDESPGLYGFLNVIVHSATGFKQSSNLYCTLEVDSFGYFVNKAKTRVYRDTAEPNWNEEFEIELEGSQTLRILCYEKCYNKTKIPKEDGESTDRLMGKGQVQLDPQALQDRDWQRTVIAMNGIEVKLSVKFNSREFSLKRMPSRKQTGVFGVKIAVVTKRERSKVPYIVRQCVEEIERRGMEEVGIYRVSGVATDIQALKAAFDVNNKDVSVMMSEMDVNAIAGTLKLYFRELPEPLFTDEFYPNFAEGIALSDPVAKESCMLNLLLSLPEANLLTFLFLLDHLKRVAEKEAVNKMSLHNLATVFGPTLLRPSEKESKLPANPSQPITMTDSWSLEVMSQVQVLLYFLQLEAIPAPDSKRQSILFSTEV
Sequence (Q96SW2 whole entry, the tested form may be a part): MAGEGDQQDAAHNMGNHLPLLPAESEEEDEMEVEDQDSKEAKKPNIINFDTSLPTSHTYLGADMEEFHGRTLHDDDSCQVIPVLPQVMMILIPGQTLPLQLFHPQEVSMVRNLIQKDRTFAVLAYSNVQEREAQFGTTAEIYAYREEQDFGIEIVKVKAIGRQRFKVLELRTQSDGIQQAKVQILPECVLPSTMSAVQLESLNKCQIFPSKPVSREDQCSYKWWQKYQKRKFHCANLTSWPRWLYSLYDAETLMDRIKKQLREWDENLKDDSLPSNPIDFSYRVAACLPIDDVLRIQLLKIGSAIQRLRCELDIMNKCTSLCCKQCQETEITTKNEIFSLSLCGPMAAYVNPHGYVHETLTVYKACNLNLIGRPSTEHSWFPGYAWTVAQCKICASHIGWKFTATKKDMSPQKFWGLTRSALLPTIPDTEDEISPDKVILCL
Measurement Description: Protac binding affinity at CRBN/BCR-ABL (unknown origin) assessed as binding to phosphorylated c-ABL kinase domain by Kinomescan assay
Type: protein assay
Give your result in nM as a bare value.

Compound	Experimental Endpoint	Reading Unit	Value Observed
COc1cc(Nc2c(C#N)cnc3cc(OCCCN4CCN(CCCCCCOCCOCCOCCOCCOCCOCC(=O)Nc5cccc6c5C(=O)N(C5CCC(=O)NC5=O)C6=O)CC4)c(OC)cc23)c(Cl)cc1Cl (centres undefined)	Kd	nM	0.13
COc1cc(Nc2c(C#N)cnc3cc(OCCCN4CCN(CCCCCCOCCOCCOCCCCCC(=O)Nc5cccc6c5C(=O)N(C5CCC(=O)NC5=O)C6=O)CC4)c(OC)cc23)c(Cl)cc1Cl (centres undefined)	Kd	nM	0.55
COc1cc(Nc2c(C#N)cnc3cc(OCCCN4CCN(CCCCCCOCCOCC(=O)Nc5cccc6c5C(=O)N(C5CCC(=O)NC5=O)C6=O)CC4)c(OC)cc23)c(Cl)cc1Cl (centres undefined)	Kd	nM	0.11

Could you now look at the following compound, please?
Look up Kd: Cc1nc(Nc2ncc(C(=O)Nc3c(C)cccc3Cl)s2)cc(N2CCN(CCCCCCOCCOCCOCCOCCOCCOCC(=O)Nc3cccc4c3C(=O)N(C3CCC(=O)NC3=O)C4=O)CC2)n1 (centres undefined)
0.23

====

Examples of molecules with documented pKd follow.
Experimental System: von Hippel-Lindau disease tumor suppressor/Tyrosine-protein kinase ABL1/Breakpoint cluster region protein (Homo sapiens, UniProt P00519+P11274+P40337)
Sequence (P00519 whole entry, the tested form may be a part): as the sequence (P00519 whole entry, the tested form may be a part) above
Sequence (P11274 whole entry, the tested form may be a part): as the sequence (P11274 whole entry, the tested form may be a part) above
Sequence (P40337 whole entry, the tested form may be a part): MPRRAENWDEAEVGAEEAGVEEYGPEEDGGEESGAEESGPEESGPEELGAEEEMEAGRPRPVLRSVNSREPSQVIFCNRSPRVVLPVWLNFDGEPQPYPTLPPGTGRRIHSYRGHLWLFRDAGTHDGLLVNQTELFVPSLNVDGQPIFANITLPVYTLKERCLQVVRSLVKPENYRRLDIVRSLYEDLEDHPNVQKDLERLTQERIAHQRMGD
Measurement Description: Protac binding affinity at VHL/BCR-ABL (unknown origin) assessed as binding to non phosphorylated c-ABL kinase domain by Kinomescan assay
Format: protein assay
Field pKd (float): negative decimal logarithm of the concentration in molar.

See these solved cases before continuing.
Compound	Value Observed
COc1cc(Nc2c(C#N)cnc3cc(OCCCN4CCN(CCCCCCOCCOCCOCCOCCOCCOCC(=O)N[C@H](C(=O)N5C[C@H](O)C[C@H]5C(=O)NCc5ccc(-c6scnc6C)cc5)C(C)(C)C)CC4)c(OC)cc23)c(Cl)cc1Cl	9.24
Cc1nc(Nc2ncc(C(=O)Nc3c(C)cccc3Cl)s2)cc(N2CCN(CCCCCCOCCOCCOCCOCCOCCOCC(=O)N[C@H](C(=O)N3C[C@H](O)C[C@H]3C(=O)NCc3ccc(-c4scnc4C)cc3)C(C)(C)C)CC2)n1	9.55
Cc1nc(Nc2ncc(C(=O)Nc3c(C)cccc3Cl)s2)cc(N2CCN(CCCCCCOCCOCC(=O)N[C@H](C(=O)N3C[C@H](O)C[C@H]3C(=O)NCc3ccc(-c4scnc4C)cc3)C(C)(C)C)CC2)n1	9.44
Cc1nc(Nc2ncc(C(=O)Nc3c(C)cccc3Cl)s2)cc(N2CCN(CCCCCCOCCOCCOCCCCCC(=O)N[C@H](C(=O)N3C[C@H](O)C[C@H]3C(=O)NCc3ccc(-c4scnc4C)cc3)C(C)(C)C)CC2)n1	9.04

// next item, pKd requested
Which pKd is reported for this molecule? "COc1cc(Nc2c(C#N)cnc3cc(OCCCN4CCN(CCCCCCOCCOCC(=O)N[C@H](C(=O)N5C[C@H](O)C[C@H]5C(=O)NCc5ccc(-c6scnc6C)cc5)C(C)(C)C)CC4)c(OC)cc23)c(Cl)cc1Cl"
8.89
